List of inhibition at 10 µM values.
Biological target: rat mGluR5 receptor (Rattus norvegicus, UniProt P31424)
Construct: expressed in transfected cells; host or cells: HEK-293
Sequence (P31424 21-1203): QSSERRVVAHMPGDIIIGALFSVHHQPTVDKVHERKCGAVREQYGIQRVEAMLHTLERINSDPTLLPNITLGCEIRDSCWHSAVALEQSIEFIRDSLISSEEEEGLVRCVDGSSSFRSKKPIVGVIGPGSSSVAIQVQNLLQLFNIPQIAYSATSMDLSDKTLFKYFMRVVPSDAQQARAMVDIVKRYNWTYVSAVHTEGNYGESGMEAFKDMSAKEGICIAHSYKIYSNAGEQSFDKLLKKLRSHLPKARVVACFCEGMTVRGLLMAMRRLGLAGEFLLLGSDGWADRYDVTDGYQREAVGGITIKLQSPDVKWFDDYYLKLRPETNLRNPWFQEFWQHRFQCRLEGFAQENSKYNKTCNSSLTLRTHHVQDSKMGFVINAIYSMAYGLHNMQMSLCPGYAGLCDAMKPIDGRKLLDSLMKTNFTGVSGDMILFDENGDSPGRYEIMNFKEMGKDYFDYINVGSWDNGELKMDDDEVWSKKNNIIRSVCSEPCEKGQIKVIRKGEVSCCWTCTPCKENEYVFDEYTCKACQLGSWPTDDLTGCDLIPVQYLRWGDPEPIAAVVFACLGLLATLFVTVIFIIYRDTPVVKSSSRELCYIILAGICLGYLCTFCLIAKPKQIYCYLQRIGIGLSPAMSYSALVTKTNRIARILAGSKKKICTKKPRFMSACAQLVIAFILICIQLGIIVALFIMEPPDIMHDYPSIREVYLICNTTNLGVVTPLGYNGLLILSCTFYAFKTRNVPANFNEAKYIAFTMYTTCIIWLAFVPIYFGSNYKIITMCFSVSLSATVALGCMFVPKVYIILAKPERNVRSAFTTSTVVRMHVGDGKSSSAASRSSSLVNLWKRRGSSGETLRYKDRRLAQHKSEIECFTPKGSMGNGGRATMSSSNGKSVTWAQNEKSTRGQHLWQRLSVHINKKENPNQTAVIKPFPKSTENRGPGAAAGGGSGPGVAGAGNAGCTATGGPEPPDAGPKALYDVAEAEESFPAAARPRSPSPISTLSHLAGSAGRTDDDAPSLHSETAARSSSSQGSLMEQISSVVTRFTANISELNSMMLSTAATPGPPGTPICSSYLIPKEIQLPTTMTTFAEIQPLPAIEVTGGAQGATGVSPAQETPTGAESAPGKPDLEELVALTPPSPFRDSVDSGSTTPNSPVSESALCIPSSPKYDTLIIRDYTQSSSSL
Assay: [3H]-MPEP displacement binding assay, HEK-293 cell membranes expressing rat mGluR5
Conditions: 1 h, single point, @ 10 μm compound; Table 1A; read-out: PCT INHIB (%) @ 10 μm
Procedure: MGluR5 expressing HEK-293 cells were scraped off a plate, transferred to centrifuge tubes and washed twice by centrifugation (2000 rpm for 10 minutes, at 4° C.) in buffer (50 mM Tris pH 7.5). The resulting pellets were aliquoted and stored at minus 80° C. […] Non-specific binding was determined in the presence of 10 μM MPEP. […] Percent inhibition and Ki values were generated by GraphPad Prism and Excel Fit. IC50 values were calculated using GraphPad by fitting to a 1 or 2 site-binding model. […]
Give your result in % as a bare value.

1. Cc1ccc(C(=O)N2CCN(c3ccccn3)CC2)cc1C#Cc1cc(C(F)(F)F)cc(C(F)(F)F)c1: 0
2. COc1ccc(C(=O)N2CCN(c3ccccn3)CC2)cc1C#Cc1ccc(F)c(C)c1: 74

Ask: Which inhibition at 10 µM is listed for "Cc1ccc(C(=O)N2CCN(c3ccccn3)CC2)cc1C#Cc1cccc(C(F)(F)F)c1" ?
Result: 81

Ask: Which inhibition at 10 µM is listed for "COc1ccc(C(=O)N2CCN(c3cnccn3)CC2)cc1C#CCc1ccccc1" ?
Result: 92

Ask: Which inhibition at 10 µM is listed for "Cc1ccc(C(=O)N2CCN(c3cnccn3)CC2)cc1C#CCc1ccccc1" ?
Result: 87

Ask: Which inhibition at 10 µM is listed for "COc1ccc(C(=O)N2CCN(c3cnccn3)CC2)cc1C#Cc1cccc(C(F)(F)F)c1" ?
Result: 96

Ask: Which inhibition at 10 µM is listed for "Cc1ccc(C(=O)N2CCN(c3ccccn3)CC2)cc1C#Cc1cccnc1" ?
Result: 68

Ask: Which inhibition at 10 µM is listed for "Cc1ccc(C(=O)N2CCN(c3cnccn3)CC2)cc1C#Cc1cccc(C(F)(F)F)c1" ?
Result: 85
